- TEST_METHOD_NOTES: NCI Yeast Anticancer Drug Screen. Data for the rad52 strain (AID 147);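 further: 0% = growth of vehicle-treated control cultures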
- PROTOCOL_CONDITIONS: S. cerevisiae rad52 mutant growth inhibition; at 33.0 µM
The panel holds about 79,000 compounds, 15% with a hit somewhere; the sample as a whole holds those more often. Calls of active or inactive are those of the source. No stated cut-off is given here; in the data, active means growth inhibition above about 70%; inactive means the rest.
Respond using exactly one of the listed classes: TRUE (active), FALSE (inactive)

Solved entries (count: 5):
>>> print(df.to_string())
                                   molecule  class_assignment
0  Cc1ccc(S(=O)(=O)Nc2ccc3c(c2)C(O)c2ccccc2-3)cc1 (stereo not drawn)              TRUE
1  O=C1c2ccccc2C(=O)c2cc(S(=O)(=O)Nc3ccccc3)ccc21             FALSE
2  COc1ccc(N=N/C(=N\NC(=O)c2cc(Br)ccc2O)c2ccc(N(CCC#N)CCC#N)cc2OC)cc1             FALSE
3  O=C(O)c1cccc2cccc(-c3c4ccc(=O)cc-4oc4cc(O)ccc34)c12              TRUE
4  CC1OC(OC2CCCc3c(O)c4c(c(O)c32)C(=O)c2ccccc2C4=O)CC(N)C1O (stereo not drawn)              TRUE

Please find the next molecule below.
Lookup: Called result for CCN(CC)CC(O)c1cc(-c2ccc(Cl)cc2)nc2c(-c3ccccc3)cccc12 (stereo not drawn)
Found: TRUE

---

- TEST_METHOD_NOTES: NCI Yeast Anticancer Drug Screen. Data for the mec2-1 strain (AID 157)
- PROTOCOL_CONDITIONS: S. cerevisiae mec2-1 strain, at 11.0 µM, stronger effect = higher value
This is part of a sample that, as a whole, favours compounds with a hit. Of some 79,000 tested, about 15% had one in any assay.
Entries annotated with measured growth inhibition
Please reply with the bare figure in % and do not write the unit itself.

In [3]: df
Out[3]:
                                   molecule  recorded_endpoint  observed
0                Cc1nc2c(ncn2CCO)c(=O)[nH]1  growth inhibition        -3
1  CCCCCCCCCCCCCCCCNC(=O)/C(=C\c1ccc(Cl)c(Cl)c1)NC(=O)c1ccccc1  growth inhibition        -7
2  C(=N/NC1=NCCN1)/c1c2ccccc2c(/C=N\NC2=NCCN2)c2ccccc12  growth inhibition        20
3                    O=Nn1c2ccccc2c2ccccc21  growth inhibition         1
4  O=C(Nc1ccc2c(c1)Cc1c-2ccc([N+](=O)[O-])c1F)C(F)(F)F  growth inhibition        -1

Lookup: Any idea what its growth inhibition is? The molecule is CCN(CC)CC(O)c1cc(-c2ccc(Cl)cc2)nc2c(-c3ccccc3)cccc12 (stereo not given)
Found: 98

---

- TEST_METHOD_NOTES: NCI Yeast Anticancer Drug Screen. Data for the bub3 strain (AID 167)
- PROTOCOL_CONDITIONS: S. cerevisiae bub3 mutant strain, at 50.0 µM
Compounds without any hit were thinned out: in the full panel of roughly 79,000, 15% have a hit. Activity calls are given as the source filed them. No stated cut-off is given here; in the data, active means growth inhibition above about 70%; inactive means the rest.
Please reply with one of these outcomes: active, inactive

Please review the following examples before continuing.
                                   compound  class_assignment
0  Clc1cc(Cc2ccc(N=C/C=C/c3ccccc3)c(Cl)c2)ccc1N=C/C=C\c1ccccc1          inactive
1    COC(=O)c1cccc(C)c1C(=O)c1c(C)cc(C)cc1C          inactive
2  COc1cc([C@@H]2c3cc4c(cc3[C@@H](OC3OC5COC(C)OC5C(O)C3O)[C@H]3COC(=O)[C@H]23)OCO4)cc(OC)c1O (some centres undefined)          inactive
3  NC(N)=NCCCS(=O)(=O)Nc1ccc(Nc2c3ccccc3nc3cc([N+](=O)[O-])ccc23)cc1          inactive
4  COc1ccc(/C=C2\SC(=S)N(C=C3C(=O)NC(=S)NC3=O)C2=O)cc1OC          inactive

Lookup: Recorded test call requested for Nc1nc(F)nc2c1ncn2C1OC(COP(=O)(O)O)C(O)C1O (centres undefined)
Found: inactive

Lookup: Please give the result for CO[C@@]12[C@H](COC(N)=O)C3=C(C(=O)C(C)=C(N)C3=O)N1C[C@@H]1N[C@@H]12 too.
Found: inactive

Lookup: // repeat for Cc1ccc2c(ccc(/C=C/c3ccc(O)c4ncccc34)[n+]2C)c1 and report
Found: active

Lookup: // query: Nc1nc(N)c2c(n1)CCC(S(=O)(=O)c1ccc3ccccc3c1)C2 (centres undefined)
Found: inactive
